Would you mind telling me the reported [0]222/[0]208 ratio of ellipticities of each entry?
METHOD SUMMARY: Circular dichroism (CD) spectroscopy of linear and stapled peptides in water or 40% TFE/water (Example 3)
Assay type: physicochemical
CONDITIONS: in 40% TFE/water
Bridges are numbered along the chain shown (N, C = ends).
Lab note: jot down the number only; don't add units.

## Input Return reported [0]222/[0]208 ratio of ellipticities; argument: Ac-(cyclo-8,12)-NLKQKIK[EVVKK]KDE-NH2 (Ac-NLKQKIKEVVKKKDE-NH2; lactam 8-12; SMILES CC[C@H](C)[C@H](NC(=O)[C@H](CCCCN)NC(=O)[C@H](CCC(N)=O)NC(=O)[C@H](CCCCN)NC(=O)[C@H](CC(C)C)NC(=O)[C@H](CC(N)=O)NC(C)=O)C(=O)N[C@@H](CCCCN)C(=O)N[C@H]1CCC(=O)NCCCC[C@@H](C(=O)N[C@@H](CCCCN)C(=O)N[C@@H](CC(=O)O)C(=O)N[C@@H](CCC(=O)O)C(N)=O)NC(=O)[C@H](CCCCN)NC(=O)[C@H](C(C)C)NC(=O)[C@H](C(C)C)NC1=O) [Compound 161]
## Output 0.82

## Input Another substance to check: Ac-(cyclo-6,10)-VSKLR[EQLVK]RKQN-NH2 (Ac-VSKLREQLVKRKQN-NH2; lactam 6-10; SMILES CC(=O)N[C@H](C(=O)N[C@@H](CO)C(=O)N[C@@H](CCCCN)C(=O)N[C@@H](CC(C)C)C(=O)N[C@@H](CCCNC(=N)N)C(=O)N[C@H]1CCC(=O)NCCCC[C@@H](C(=O)N[C@@H](CCCNC(=N)N)C(=O)N[C@@H](CCCCN)C(=O)N[C@@H](CCC(N)=O)C(=O)N[C@@H](CC(N)=O)C(N)=O)NC(=O)[C@H](C(C)C)NC(=O)[C@H](CC(C)C)NC(=O)[C@H](CCC(N)=O)NC1=O)C(C)C) [Compound 152]
## Output 0.70

## Input Another substance to check: Ac-(cyclo-4,8)-VSK[ERSQK]VKRKQN-NH2 (Ac-VSKERSQKVKRKQN-NH2; lactam 4-8; SMILES CC(=O)N[C@H](C(=O)N[C@@H](CO)C(=O)N[C@@H](CCCCN)C(=O)N[C@H]1CCC(=O)NCCCC[C@@H](C(=O)N[C@H](C(=O)N[C@@H](CCCCN)C(=O)N[C@@H](CCCNC(=N)N)C(=O)N[C@@H](CCCCN)C(=O)N[C@@H](CCC(N)=O)C(=O)N[C@@H](CC(N)=O)C(N)=O)C(C)C)NC(=O)[C@H](CCC(N)=O)NC(=O)[C@H](CO)NC(=O)[C@H](CCCNC(=N)N)NC1=O)C(C)C) [Compound 150]
## Output 0.81

## Input Another substance to check: Ac-NLKQKIKHVVKLKDE-NH2 [Compound 156]
## Output 0.74

## Input Another substance to check: Ac-(cyclo-6,10)-VSKLR[KQLVE]RKQN-NH2 (Ac-VSKLRKQLVERKQN-NH2; lactam 6-10; SMILES CC(=O)N[C@H](C(=O)N[C@@H](CO)C(=O)N[C@@H](CCCCN)C(=O)N[C@@H](CC(C)C)C(=O)N[C@@H](CCCNC(=N)N)C(=O)N[C@H]1CCCCNC(=O)CC[C@@H](C(=O)N[C@@H](CCCNC(=N)N)C(=O)N[C@@H](CCCCN)C(=O)N[C@@H](CCC(N)=O)C(=O)N[C@@H](CC(N)=O)C(N)=O)NC(=O)[C@H](C(C)C)NC(=O)[C@H](CC(C)C)NC(=O)[C@H](CCC(N)=O)NC1=O)C(C)C) [Compound 155]
## Output 0.75
